Below, each of the compounds is paired with its reported GI50 value.
Tested on: T-Rex 293 cell line SC3 cells lacking increased expression of androgen receptor protein
test method notes: Cellular growth inhibition assay, T-Rex 293 SC3 cells without doxycycline (CellTiter-Glo, 72 hours)
Type: cell-based
condition details: 72 h, T-Rex 293 cell line SC3 cells not exposed to doxycycline (lacking increased androgen receptor expression)

Ask | Write down measured GI50 (T-Rex 293 cell line SC3 cells lacking increased expression of androgen receptor protein) for this compound. Cc1sc2c(c1C)C(c1ccc(CCC3CCN(c4ccc(C(=O)NC5CCC(Oc6ccc(C#N)c(Cl)c6)CC5)nn4)CC3)cc1)=NC(C)c1nnc(C)n1-2 (stereo not shown) [I-593]
Reply | < 500 nM

Provenance of the data: patent US20260109707A1
